# System: BMX;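 further: KINOMEscan kinase panel screen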
# Condition Set: concentration: 1 μM, replicates: in singlicate; n = 1

{"Compound": "O=C(c1ccc(-c2cc(-c3c[nH]nc3-c3ccccn3)ccn2)cc1)N1CCCC1 [GW792479]", "System Name": "BMX", "Units Label": "%", "%Inh": 12}
{"Compound": "CSc1nn2c(=O)cc(N3CCOCC3)nc2n1Cc1cccc(Cl)c1Cl [GSK2347225]", "System Name": "BMX", "Units Label": "%", "%Inh": 6}
{"Compound": "COc1ccc(Nc2nccc(N3CCC(NC(=O)Nc4ccc5c(c4)OCO5)C3)n2)cc1 (stereo not drawn) [GSK1379745]", "System Name": "BMX", "Units Label": "%", "%Inh": 13}
{"Compound": "FC(F)(F)c1ccc(-c2nn3ncccc3c2-c2ccnc(Nc3cccc(C(F)(F)F)c3)n2)cc1 [GW828205]", "System Name": "BMX", "Units Label": "%", "%Inh": 0}
{"Compound": "CC(=O)Nc1n[nH]c2ncc(-c3ccccc3)cc12 [SB-548492]", "System Name": "BMX", "Units Label": "%", "%Inh": 13}
{"Compound": "CS(=O)(=O)CCNCc1nc(-c2ccc3ncnc(Nc4ccc(OCc5cccc(F)c5)c(Cl)c4)c3c2)cs1.Cl [GW583340]", "System Name": "BMX", "Units Label": "%", "%Inh": 0}
{"Compound": "O=C(Nc1n[nH]c2nc(-c3ccco3)c(Br)cc12)c1ccc(CN2CCCC2)cc1.O=C(O)[C@H](O)[C@@H](O)C(=O)O [SB-742352]", "System Name": "BMX", "Units Label": "%", "%Inh": 8}
{"Compound": "CCn1c(-c2ccncc2)nc2cnccc21 [SB-735216]", "System Name": "BMX", "Units Label": "%", "%Inh": 17}
{"Compound": "CCc1nc(-c2cccc(N(C)S(=O)(=O)c3ccccc3)c2)c(-c2ccnc(Nc3ccc(N4CCN(C(C)=O)CC4)nc3)n2)s1 [GSK1645895]", "System Name": "BMX", "Units Label": "%", "%Inh": 15}
{"Compound": "CNc1nccc(-c2c(-c3ccc(F)cc3)ncn2C2CCN(C)CC2)n1 [SB-222903]", "System Name": "BMX", "Units Label": "%", "%Inh": 0}
{"Compound": "Nc1nccc2scc(-c3ccc4c(c3)CCN4C(=O)Cc3cc(F)ccc3F)c12 [GSK2587663]", "System Name": "BMX", "Units Label": "%", "%Inh": 23}
{"Compound": "c1ccc(-c2ccc3c(-c4ccnc(Nc5ccc6c(c5)OCCO6)n4)cnn3n2)cc1 [GW818941]", "System Name": "BMX", "Units Label": "%", "%Inh": 8}
{"Compound": "CSc1ccc(NC2=C(c3ccccc3Cl)C(=O)NC2=O)cc1 [SB-342411]", "System Name": "BMX", "Units Label": "%", "%Inh": 34}
{"Compound": "CCc1nc(-c2cccc(C)c2)c(-c2ccnc(NC(=O)c3ccccc3)c2)s1", "System Name": "BMX", "Units Label": "%", "%Inh": 0}
{"Compound": "Fc1ccc(-c2ncn(CCCNCc3ccccc3)c2-c2ccncc2)cc1", "System Name": "BMX", "Units Label": "%", "%Inh": 7}
{"Compound": "COc1cc2ncnc(Nc3ccc(OCc4ccccc4Br)c(Cl)c3)c2cc1OC.Cl [GI261590]", "System Name": "BMX", "Units Label": "%", "%Inh": 4}
{"Compound": "Cl.c1ccc(Cn2ncc3cc(Nc4ncnc5ccccc45)ccc32)cc1 [GW273749]", "System Name": "BMX", "Units Label": "%", "%Inh": 0}
{"Compound": "Cn1ccc2ncnc(Nc3ccc(Oc4cccc(Cl)c4)c(Cl)c3)c21", "System Name": "BMX", "Units Label": "%", "%Inh": 13}

Data origin, for the record: paper PMC5540273
